Target: Ubiquitin carboxyl-terminal hydrolase 8 (Homo sapiens) (UniProt P40818)
Sequence (whole entry): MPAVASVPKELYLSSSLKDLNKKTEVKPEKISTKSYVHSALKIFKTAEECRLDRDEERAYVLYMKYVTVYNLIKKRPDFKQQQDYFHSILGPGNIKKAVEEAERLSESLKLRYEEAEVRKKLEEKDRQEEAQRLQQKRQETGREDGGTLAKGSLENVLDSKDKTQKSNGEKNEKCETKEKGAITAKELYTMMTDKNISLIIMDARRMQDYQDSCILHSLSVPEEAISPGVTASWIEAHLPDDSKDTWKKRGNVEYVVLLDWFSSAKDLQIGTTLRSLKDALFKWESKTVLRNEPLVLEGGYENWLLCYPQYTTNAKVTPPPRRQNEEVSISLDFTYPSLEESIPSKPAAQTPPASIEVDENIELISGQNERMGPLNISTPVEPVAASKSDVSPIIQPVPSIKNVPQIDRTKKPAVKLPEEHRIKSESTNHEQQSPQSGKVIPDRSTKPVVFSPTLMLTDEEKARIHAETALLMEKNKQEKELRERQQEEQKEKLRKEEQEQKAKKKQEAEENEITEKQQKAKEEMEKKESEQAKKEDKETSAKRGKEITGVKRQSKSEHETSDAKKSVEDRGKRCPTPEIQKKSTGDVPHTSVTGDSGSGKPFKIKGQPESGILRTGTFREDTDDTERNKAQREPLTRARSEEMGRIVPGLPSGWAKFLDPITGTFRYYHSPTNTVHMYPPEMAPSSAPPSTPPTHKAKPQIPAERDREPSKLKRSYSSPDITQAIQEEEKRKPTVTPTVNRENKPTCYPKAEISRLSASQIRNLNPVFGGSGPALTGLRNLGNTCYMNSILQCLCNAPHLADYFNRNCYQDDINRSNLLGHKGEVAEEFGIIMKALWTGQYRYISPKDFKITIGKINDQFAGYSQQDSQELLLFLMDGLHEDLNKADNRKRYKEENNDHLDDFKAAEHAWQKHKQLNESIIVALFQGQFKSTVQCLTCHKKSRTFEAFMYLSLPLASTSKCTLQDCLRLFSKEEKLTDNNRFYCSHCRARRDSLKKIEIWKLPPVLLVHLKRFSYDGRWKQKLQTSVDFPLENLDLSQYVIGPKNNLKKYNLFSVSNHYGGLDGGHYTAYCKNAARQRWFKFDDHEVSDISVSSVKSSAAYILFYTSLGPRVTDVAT
Test: Inhibition of N-terminal His-6 tagged USP8 (734 to 1110 residues) (unknown origin) expressed in Escherichia coli BL21 (DE3) cells at 100 nM measured after 3 hrs by fluorescence based Plate reader method relative to control
Settings: values are per cent of control
Lab note - cut at 30% for residual activity: YES if strictly below, NO if not.

Solved entries:
[[record]]
molecular_string = "O=C1c2ccccc2C(=O)c2oc(-c3cccc(OCCN4CCOCC4)c3)nc21"
discrete_label = "NO"

[[record]]
molecular_string = "O=C1c2ccccc2C(=O)c2oc(-c3ccc(C(F)(F)F)cc3)nc21"
discrete_label = "YES"

[[record]]
molecular_string = "CN1CC[C@@H](Oc2ccc(-c3nc4c(o3)C(=O)c3ccccc3C4=O)c(Cl)c2)C1"
discrete_label = "NO"

[[record]]
molecular_string = "CN1CC[C@@H](Oc2ccc(F)c(-c3nc4c(o3)C(=O)c3ccccc3C4=O)c2Cl)C1"
discrete_label = "YES"


# input for lookup
Lab log: compare recorded residual activity with 30%; is it strictly lower for `O=C1c2ccccc2C(=O)c2oc(-c3cc(Cl)ccc3Cl)nc21` ?
NO
